Assay: yeast display, Sf9 membrane polyspecificity reagent, FACS + sequencing; frameworks hold sequencing errors
quantity.kind: polyreactivity (PSR sort gate)

Study these solved cases before continuing.
primary.sequence	polyreactivity (PSR sort gate)
QVQHVESGGGLVQAGGSLRLSCASSGSTFRYNAMGWYRQAPVKERELVAAISSSGGSTYYADSVKGRFTISRDNAKNTVYLQMNSLKPEDPEVYYCAAPTRSRFKGYYYWGQGTQVTVSS	high polyreactivity
QVQLVESGGGLVQAGGSLRLSCAASGFIFRWYAMGWYRQAPGKERELVAAISRSGDSTYYADSVKGRFTISRDNAKNTVYLQMNSLKPEDTAVYYCAADDRYYTYGYDYWGQGTQVTVSS	low polyreactivity
QVQLVESGGGLVQPGGSLRLSCAASGSIFLRYAMGWYRQAPGKERELVAGITSGGSTNYADSVKGRFTISRDNAKNTVYLQMNSLKPEDTAVYYCNKDLPDWGQGTQVTVSS	low polyreactivity
QVQLVESGGGLVQAGGSLRLSCAASGSIFGNAMGWYRQAPGKEREFVAAISSSGSSTYYADSVKGRFTISRDNAKNTVYLQMNSLKPEDTAVYYCAKRRRSAAPKYDYWGQGTQVTVSS	high polyreactivity
QVQLVESGGGLVQAGGSLRLSCAASGSIFRRYAMGWYRQAPGKERELVAAISWRGDSTYYADSVKGRFTISRDNAKNTVYLQMNSLKPEDTAVYYCNSLIGANPLCYAARYDYWGQGTQVTVSS	low polyreactivity

Challenge: Entry QVQLVESGGGLVQAGGSLRLSCAASGRIFGIYAMGWYRQAPGKERELVATITDSDDSTYYADSVKGRFTISRDNAKNTVNLQMNSLKPEDTAVYYCATAFSYGGGAYDYWGQGTKVTVSS needs its polyreactivity (PSR sort gate) filled in; supply it.
Response given: low polyreactivity

Challenge: Entry QVQLVESGGGLVQAGGSLRLSCAASGGSFYPYAMGWSRQAPGKERELLAAISWSGDITYYADSVKGRFTISRDNANNTVYLQMNSLKPEDTAVYYCAAGRVVDKDPSYFREGDYWGQGTQVTVSS needs its polyreactivity (PSR sort gate) filled in; supply it.
Response given: low polyreactivity

Challenge: Entry QVKLVESGGGLVQAGGSLRLSSDASGSIFLYNAMGWYRQAPGKERELVADISWSGGSTYYADSVKGRFTISRVNEKYTVYLQMNSLKPEDTAVYYCNAVVYWFSTSYVYTYDYWGQGTQVTVSS needs its polyreactivity (PSR sort gate) filled in; supply it.
Response given: high polyreactivity

Challenge: Entry QVQLVESGGGLVQAGGSLRLSCAATGSIFWVNGMGWYRQAPGKERELVAAITWSGGSTYYADSVKGRFTISRDNAKNTVYLQMNSLKPEDTAVYYCADYGQYYLWDGYGYWGQGTQVTVSS needs its polyreactivity (PSR sort gate) filled in; supply it.
Response given: low polyreactivity

Challenge: Entry QVQLVESGGGLVQAGGSLRLSCADSGSTFYHNAMGWYRQAPGKERELDDAIRFSGTSTYYADSVKGRFTISRDNAKNTVYLQMNSLKPEDTAVYYCAAEVSSPAQREFDYWGQGTQVTVSS needs its polyreactivity (PSR sort gate) filled in; supply it.
Response given: low polyreactivity

Challenge: Entry QVQLVESGGGLVQAGGSLRLSCAASGRIFSRNAMGWYRQAPGKEWELVARITVTVGSTYYADSVKGRFTISRDNAKNTVYLQMNSLKPEDTAVYYCAADAGYRYDCPYNYYYWGQGTQVTVSS needs its polyreactivity (PSR sort gate) filled in; supply it.
Response given: low polyreactivity

====

Assay: yeast display, Sf9 membrane polyspecificity reagent, FACS + sequencing; frameworks hold sequencing errors

primary.sequence	polyreactivity (PSR sort gate)
QVQLVESGGGLVQAGGSLRLSCAASGRIFGANAMGWYRQAPGKERELVAAISGSGGRTYYADSVKGRFTISRDNAKNTVYLQMNSLKPEDTAVYYCAAGRPTYSRYFGFEYWGQGTQVTVSS	high polyreactivity
QVQLVESGGGLVQAGGSLRLTCAASGRIFSHNTMGWYRQAPGKERELVAAISGGGGRTYYADSVKGRFTISRDNAKNTVYLQMKSLKPEDTAVYYCAAVRVSYRSLSKSYYWGQGTQVTVSS	high polyreactivity

====

Experiment: yeast display, Sf9 membrane polyspecificity reagent, FACS + sequencing; frameworks hold sequencing errors
quantity.kind: polyreactivity (PSR sort gate)

Study these solved cases before continuing.
primary.sequence	polyreactivity (PSR sort gate)
QVQLVESGGGLVQAGGSLRLSCAASVYTVVWYAMGWYRPAPGKERELVAVITSGGGTNYADSVKGRFTISRDNAKNTVYLQMNSLKPEDTAVYYCAAVWYTSRQKYDYWGQGTQVTVSS	low polyreactivity
QVQHVASGGGLVQAGGSLRLSCAASGSTFVYYAMGWYRQAPGKERELFADITKSGGSTFYAESVKGRFTISRDNAKNTVYLQMNSLKPEDTAVFYCGARYKGQYYRQGRHDYWGQGSQVTVSS	high polyreactivity
QVQLVESGGGLVQAGGSLRLSCAASGSTFVYYAMGWYRQAPGKEREFVAGISRSGGSTYYADSVKGRFTISRDNAKNTVYLQMNSLIPEDTAVYYCNARGGLPKYGYWGQGTQVTVSS	high polyreactivity
QVQLVESGGGLVQAGGSLRLSCAASGRILPYNVMGWYRQAPGKEWEFVAAITGSGGDTYYADSVKGRFTISRDTAKNTVYLQMNSLKPEDTAVYYCAAAPYIGGSFGQTPGSGYWGQGTQVTVSS	low polyreactivity
QVQLQESGGGLEQAGGSLRLSCAASGYITDIGTMGWYRQAPGKEREFVATIVVGSTTNYADSVKGRFTISRDNAKNTVYLQPESGRYRGVLLRGWLLAVGNFTYWGQGTQETVSS	low polyreactivity

Challenge: Entry QVQLVESGGGLVQAGGSLRLSCAASGSIFDWYDMGWYRQAPGKEGELVAAISSGDSTYYADSVKGRFTISRDNAKNTVYLQMNSLKPEDTAVYYCAAVTKLSGIRYNYWGQGTQVTVSS needs its polyreactivity (PSR sort gate) filled in; supply it.
Response given: low polyreactivity

Challenge: Entry QVQLVESGVGIVQAGGSLRLSCAASGRIFARNAMVWYRHAPGKERELVATIRVGGGSTYYADSVKGRFTISRDNAKNTVYLQMNSLKPEDTAVYYCAVRQLYSYPGDRRGYYWGQGTQVTVSS needs its polyreactivity (PSR sort gate) filled in; supply it.
Response given: low polyreactivity

====

Assay: yeast display, Sf9 membrane polyspecificity reagent, FACS + sequencing; frameworks hold sequencing errors
quantity.kind: polyreactivity (PSR sort gate)

Study these solved cases before continuing.
primary.sequence	polyreactivity (PSR sort gate)
QVQLVESGGGLVQAGGSLRLSCAASGNIFYLNTMGWYRQAPGKERELVASISRDGGRTYYADSVKGRFTISRDNAKNTVYLQMNSLKPEDTAVYYCAAVVLHHFTEVGQHYYWGQGTQVTVSS	low polyreactivity
QVQLVESVGGLVQAGGSLRLSCAASGSIFITYAMGWYRQAPGKVRELVAAIRDSGDRTYYADSVKGRFTISRDNAKNTVYLQMNSLKPEDTAVYYCNARWQEPLKYDYWGQGTQVTVSS	low polyreactivity
QVQLVESGGGLVQAGGSLRLSCAASGSTSLVNAMGWYRQAPGKERELVAAITRGGNTYYADSVKGRFTISRDNAKNTVYLQMNSLKPEDTAVYYCNVGQDALYRLEYWGQGTQVTVSS	low polyreactivity
QVQLVESGGGLVQAGGSLRLSCAASGRIFVFYAMGWYRQAPGKERELVASITLTDGSTYYADSEKGRFTISRDNAKNTVYLQMNSLKPEDTAVYYCAARISGGSTFRYQRMYYWGQGTQVTVSS	low polyreactivity
QVQLVESGGGLVQAGGSLRLSCAASGSTFVYYAMGSYIQAPGKERELVAAISSGGNTKYADSVKGRFTISRDNAMNTVYLHMNRLKPEDTAVYYCARETQSYFDHDYWGQGTQVTVSS	low polyreactivity
QVQLVESGGGLVQAGGSLRLSCAASGIIFWYYAMGWYRQAPGKERELVAAISGSGGRTYYADSVKGRFTISRDNAKNTVYLQMNSLKPEDTAVYYCNALRAAFYHRARELDYWGQGTQVTVSS	high polyreactivity
QVQLVESGGGLVQAGGSLSLSCAASGSILDRNTMGWYRQAPGKERELVAAITGSGSRTYYADSVKGRFTISRDNAKNTVYLQMNSLKPEDTAVYYCAAYTHSWTGDNYWGQGTQVTVSS	high polyreactivity
QVQLQESGGGLVQAGGSLRLSCAASGSNFDTPTMGWYRQAPGKERELVASIAYDDNTYYADSVKGRFTISRYNAKNTVYLQMNSLKPGDTAVYYCAVTDRIYYYFVYWGQGTRVTVSS	high polyreactivity

Challenge: Entry QVQLVESGGGLVQAGGSLRLSCAASGRILWSYAMGWYRQAPGKEREFVATINRSGGNTHYADSVKGRFTISRDNAKNTVYLQMNSLKPEDTAVYYCAARNLVPYGYQGLRYYYWGQGTQVTVSS needs its polyreactivity (PSR sort gate) filled in; supply it.
Response given: high polyreactivity

Challenge: Entry QVQHVESGGGLVQAGASLRLSCAASGFIFPSYVKGWYRQAPWKERDLVATISRSGGSTYYADSVKGRFTISRDNAKNTVYLQMNSLKPEDTAVYYCAAYPYSYLQLMDYWGQGTQVTVSS needs its polyreactivity (PSR sort gate) filled in; supply it.
Response given: high polyreactivity

Challenge: Entry QVQLVESGGGLVQAGGSLRLSCAASGIIFWRYAMGWYRQAPGKERELVAAIRYRAGSTYYADSVKGRFTISRDNAKNTVYLQLNSLKPEDTAVYYCAAGWWTSPDRRGGDYWGQGTQVTVSS needs its polyreactivity (PSR sort gate) filled in; supply it.
Response given: high polyreactivity
